Data origin, for the record: patent US20260109755A1

Biological target: T1, SH3 domain-containing YSC84-like 1 (SH3YL1), antigen of the antibodies (UniProt Q96HL8 1-342)
T1 chain: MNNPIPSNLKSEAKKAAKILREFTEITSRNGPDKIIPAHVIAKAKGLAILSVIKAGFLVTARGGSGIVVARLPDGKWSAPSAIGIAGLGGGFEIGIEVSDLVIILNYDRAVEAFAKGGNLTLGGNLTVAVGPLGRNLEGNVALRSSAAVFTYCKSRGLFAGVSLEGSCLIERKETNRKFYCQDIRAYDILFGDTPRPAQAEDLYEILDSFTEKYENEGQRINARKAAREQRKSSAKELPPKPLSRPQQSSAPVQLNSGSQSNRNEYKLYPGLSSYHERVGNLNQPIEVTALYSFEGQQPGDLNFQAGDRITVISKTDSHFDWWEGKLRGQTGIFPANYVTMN
recorded_metric: Kd
Please answer using the number first and the unit second.

Exam item: Which value of Kd has been reported for S4A antibody (antibody, V domains shown) VH: EVQLLESGGGLVQPGGSLRLSCAASGFTFSSYSMNWVRQAPGKGLEWVSWISPNSGSTDYAQKFQGRFTISRDNSKNTLYLQMNSLRAEDTAVYYCARTPPGTPFDYWGQGTLVTVSS VL: QSVLTQPPSASGTPGQRVTISCSGNNIGSKSVHWYQQLPGTAPRLLIYSTSNKHSGVPDRFSGSKSGTSASLAISGLHSEDEADYYCSSYTSSGTRVFGGGTKLTVLG in the records?
Marked response: 2.06 nM
